protocol_description: amyloid nucleation score (Sup35N fusion, yeast selection) (log enrichment); library NNK3; higher = more nucleation; inactive = no reads after selection;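 note: zero at mode of non-aggregating sequences after 7 days selection at 30°C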
observable: amyloid nucleation score

Illustrative cases are given below, each with its answer.
FGTEDK	inactive
YRFSRFKMRAVPTMILKLNV	-0.056
VACHRS	inactive
FLSCNTCWGMTNANLSDNFN	2.05
FYVVNSWPRMMCGQARILCL	inactive

Dear colleague, could you send me amyloid nucleation score for each of the items below? Thanks.
1. PLRRSMMRIPHATF
2. PNCGFVCMKMCATTDLFVCV
3. FRLMVGCCYGGPGREVWAGG
4. YRSTLEKVSVGMMENICVGI

A.
inactive
inactive
inactive
0.028

Dear colleague, could you send me amyloid nucleation score for each of the items below? Thanks.
1. SIILVYKLE
2. SLRHLDFFRLTGFWHFYALD
3. LGHVCILVQGGSKVRPTYGS
4. WCGGDYVLKNGKFALGVVGS
5. RYRNIYC
6. RLVDLAWRCYKIDKCLTCSS
7. IVHVSLWKMSISPIWEWSMI
8. RFKKVVHSFRFCAIENVLDY

A.
1. inactive
2. inactive
3. inactive
4. inactive
5. inactive
6. -0.589
7. 0.006
8. inactive

Dear colleague, could you send me amyloid nucleation score for each of the items below? Thanks.
1. SIHLMWRQCYFSLLCVNKGM
2. VLLLFWAPVNAGTVWYLWNR
3. RKVSSLVITRMAWMLSGNWL

A.
inactive
inactive
2.57

Dear colleague, could you send me amyloid nucleation score for each of the items below? Thanks.
1. SDGNSMLGDFRVRMVCHMLL
2. WISSGDIGRVVDWIQVCIEP
3. LAVYSSINFSRNGGSLTWTI

A.
inactive
inactive
inactive

====

protocol_description: amyloid nucleation score (Sup35N fusion, yeast selection) (log enrichment); library NNK2; higher = more nucleation; inactive = no reads after selection
observable: amyloid nucleation score

Illustrative cases are given below, each with its answer.
GVDKKVSSTECIETVSCFIT	inactive
TFWGTTY	inactive
FWLSYTDLWNNY	inactive
SFNDESGFLLSSGYPISFKR	inactive

Dear colleague, could you send me amyloid nucleation score for each of the items below? Thanks.
1. GCRGHFMYRTW
2. YPEDEFFQHRRWKRILSWDV

A.
inactive
inactive

Q. Which value of amyloid nucleation score has been reported for FLRENLCTDVGLTHVCCTYT in the records?
A. inactive

====

protocol_description: amyloid nucleation score (Sup35N fusion, yeast selection) (log enrichment); library NNK3; higher = more nucleation; inactive = no reads after selection
observable: amyloid nucleation score

Illustrative cases are given below, each with its answer.
SMQGDRWFLVL	inactive
KQLDDPRQICIFYPT	inactive
YLFSSMLVILTCFRT	inactive
LQAHCSNFWVFYMAFGPIDF	1.76

Dear colleague, could you send me amyloid nucleation score for each of the items below? Thanks.
1. NSVQAWPMIELEQPLKSLVQ
2. KMDLTGWTI
3. CLMSVSAPFHVFALYIQLFC
4. LCFRCASLTESIGL
5. STSVVELVNLVDDLRLNLSR
6. GGARMRFDQFMRHRATLASV
7. DVNIRSSGDNTIAFKYYTMK
8. ICEPADQV

A.
1. inactive
2. inactive
3. inactive
4. inactive
5. inactive
6. inactive
7. 0.14
8. inactive

Dear colleague, could you send me amyloid nucleation score for each of the items below? Thanks.
1. YKSDSLLRSSLLTELTPIHF
2. TIRFGSSLPCNPDSSYLLRI
3. MVLGELCVPGIFALCRFECN
4. DKNSWLYSASEYIWFFNTES

A.
1: inactive; 2: inactive; 3: inactive; 4: inactive

Dear colleague, could you send me amyloid nucleation score for each of the items below? Thanks.
1. WWDTLIAGSLPKLTWNQKTG
2. ANICVFFSLDWFCPLFLSHK
3. YAFISWNS

A.
inactive
2.34
inactive
